target: CDK4/CyclinD1 (Homo sapiens, UniProt P11802); construct: purchased Thermofisher PR8064A; experiment: Assay for inhibition of CDK4/CyclinD1 (Caliper microfluidic kinase assay); format: biochemical; conditions: CDK4/CyclinD1, 200 μM ATP
Sequence (P11802 whole entry): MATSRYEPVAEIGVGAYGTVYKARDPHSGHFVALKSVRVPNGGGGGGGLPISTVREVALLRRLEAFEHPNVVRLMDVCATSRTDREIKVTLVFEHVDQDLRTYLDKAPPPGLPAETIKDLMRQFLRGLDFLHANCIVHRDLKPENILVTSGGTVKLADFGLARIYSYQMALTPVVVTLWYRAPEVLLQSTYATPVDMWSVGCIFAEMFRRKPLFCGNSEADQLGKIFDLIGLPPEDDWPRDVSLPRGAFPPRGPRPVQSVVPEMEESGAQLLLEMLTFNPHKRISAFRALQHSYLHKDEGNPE
Sequence (P24385 whole entry partner): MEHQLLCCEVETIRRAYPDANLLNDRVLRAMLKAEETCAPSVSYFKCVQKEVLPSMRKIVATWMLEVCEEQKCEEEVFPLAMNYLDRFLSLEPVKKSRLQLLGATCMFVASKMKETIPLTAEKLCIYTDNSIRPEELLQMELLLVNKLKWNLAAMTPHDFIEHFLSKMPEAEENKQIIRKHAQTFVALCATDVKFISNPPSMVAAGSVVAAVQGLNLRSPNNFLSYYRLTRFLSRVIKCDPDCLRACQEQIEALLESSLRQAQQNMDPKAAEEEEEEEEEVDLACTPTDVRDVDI
outcome.measure: IC50

**Query** Name the recorded IC50 of the compound listed here: `CC(C)c1cnn2ccc(-c3nc(Nc4ccc(CN5CCOCC5=O)cn4)ncc3F)cc12`
**Result** 10 to 100 nM

**Query** Let me know recorded IC50 for CNC1CCN(c2ccc(Nc3nccc(-c4ccn5ncc(C(C)C)c5c4)n3)nc2)C(=O)C1 (single isomer, unassigned) [Synthetic Example 206] , thanks.
**Result** < 10 nM

**Query** Answer with the recorded IC50 for the compound listed here: `CC(C)n1cnc2c1CN(c1nc(Nc3ccc(N4CCNCC4=O)cn3)ncc1F)CC2`
**Result** < 10 nM

**Query** Determine from records and report IC50 for CC(C)n1cnc2c(F)nc(-c3ccnc(Nc4ccc(N5CCC(C)(N)CC5=O)cn4)n3)cc21 (stereo not drawn)
**Result** < 10 nM

**Query** For the compound COc1nc(-c2nc(Nc3ccc(N4CCC(N(C)C)CC4=O)cn3)ncc2F)cc2c1nc(C)n2C(C)C (single isomer, unassigned) [Example 62-1] , give its measured IC50 value.
**Result** < 10 nM

**Query** Retrieve IC50 measured for `CC(C)c1cnn2ccc(-c3ccnc(Nc4cccc(N5CCNCC5=O)c4)n3)cc12` and print it.
**Result** 10 to 100 nM

**Query** Recall and state the measured IC50 for CC(C)c1cnn2ccc(-c3nc(Nc4ccc(N5CCC(NC6CC(F)(F)C6)CC5=O)cn4)ncc3F)cc12 (stereo not drawn) .
**Result** < 10 nM

**Query** Give IC50 for the following compound: CC(C)c1cnn2ccc(-c3ccnc(Nc4ccc(N5CCC(O)CC5=O)cn4)n3)cc12 (stereo not drawn)
**Result** 10 to 100 nM

**Query** Tell me its IC50 given `CC(C)c1cnn2ccc(-c3nc(Nc4ccc(N5CCC(N(C)C)CC5)cn4)ncc3F)cc12` as the entry.
**Result** < 10 nM

**Query** Entry `CC(C)N1CCN(c2ccc(Nc3ncc(F)c(N4CCc5ncn(C(C)C)c5C4)n3)nc2)CC1` needs its IC50 filled in; supply it.
**Result** < 10 nM

**Query** Fill in reported IC50 for this entry: `CC(C)(C)c1cnn2ccc(-c3ccnc(Nc4ccc(N5CCNCCC5=O)cn4)n3)cc12`
**Result** < 10 nM
